Taken from the supplement of paper PMC9112550.

- System: Escherichia coli TOP10;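 also: peptides expressed intracellularly from a pBAD plasmid library in pooled LB shake-flask culture, induced with 0.3% L-arabinose, DNA abundance read by NGS, three biological replicates, DESeq2 with apeglm shrinkage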
- Method Summary: shrunken log2 fold change of peptide-encoding DNA abundance (4.5 h post-induction vs induction); higher = less antimicrobial activity (less host growth inhibition)
- Run Parameters: time post-induction: 4.5 h; library: site-saturation at positions 5, 18, 19, 20
Threshold rule: shrunken log2 fold change greater than or equal to -0.003 is True; below that, False.

| Ordered Residues | Target Or Test System | Class Assignment |
| --- | --- | --- |
| RRIRQRPPRLPRPRPRPLQAPRP | Escherichia coli TOP10 | True |
| RRIRTRPPRLPRPRPRPDTDPRP | Escherichia coli TOP10 | False |
| RRIRDRPPRLPRPRPRPGDKPRP | Escherichia coli TOP10 | True |
| RRIRDRPPRLPRPRPRPWREPRP | Escherichia coli TOP10 | True |
| RRIRCRPPRLPRPRPRPKLPPRP | Escherichia coli TOP10 | False |
| RRIRHRPPRLPRPRPRPRNDPRP | Escherichia coli TOP10 | False |
| RRIRSRPPRLPRPRPRPYAQPRP | Escherichia coli TOP10 | False |
| RRIRIRPPRLPRPRPRPKQAPRP | Escherichia coli TOP10 | True |
| RRIRQRPPRLPRPRPRPFHWPRP | Escherichia coli TOP10 | True |
| RRIRQRPPRLPRPRPRPETYPRP | Escherichia coli TOP10 | False |
| RRIRRRPPRLPRPRPRPCHGPRP | Escherichia coli TOP10 | False |
| RRIRKRPPRLPRPRPRPISVPRP | Escherichia coli TOP10 | False |
